Below: a set of entries, each annotated with reported IC50 (ug/ml), pseudovirus neutralization, TZM-bl assay.
molecular target: 92RW020 pseudovirus Env (HIV-1); assay: cell-based or functional assay
measure: IC50 (ug/ml), pseudovirus neutralization, TZM-bl assay (µg/mL)

- binder: "1469_M23 (PG16) (antibody, V domains shown) VH: QEKLVESGGGVVQPGGSLRLSCLASGFTFHKYGMHWVRQAPGKGLEWVALISDDGMRKYHSDSMWGRVTISRDNSKNTLYLQFSSLKVEDTAMFFCAREAGGPIWHDDVKYYDFNDGYYNYHYMDVWGKGTTVTVSS VL: QSALTQPASVSGSPGQTITISCNGTRSDVGGFDSVSWYQQSPGRAPKVMVFDVSHRPSGISNRFSGSKSGNTASLTISGLHIEDEGDYFCSSLTDRSHRIFGGGTKLTVLG"
  outputUnit: "µg/mL"
  experimentalResult: 0.05
- binder: "1489_I13 (PG16) (antibody, V domains shown) VH: QEQLLESGGGVVQPGGSLRLSCLASGFTFHKYGMHWVRQAPGKGLEWVALISDDGMRKYHSNSMWGRVTISRDNSKNTLYLQFSSLKVEDTAMFFCAREAGGPIWHDDVKYYDFNDGYYNYHYMDVWGKGTTVTVSS VL: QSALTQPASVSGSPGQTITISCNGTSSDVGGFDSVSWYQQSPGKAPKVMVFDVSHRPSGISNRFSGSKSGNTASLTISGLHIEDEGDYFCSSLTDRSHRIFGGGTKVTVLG"
  outputUnit: "µg/mL"
  experimentalResult: 0.03
- binder: "1456_A12 (PG16) (antibody, V domains shown) VH: HEQLVEAGGGVVQPGGSLRLSCLASGFTFHKYGMHWVRQAPGKGLEWVALISDDGMRKYHSDSMWGRVTISRDNSKNTLYLQFSSLRVEDTAMFFCAREAGGPIWHDDVKYYDFNDGYYNYHYMDVWGKGTKVTVSS VL: QSALTQPASVSGSPGQTITISCNGTSRDVGGFDSVSWYQQSPGKAPKVMVFDVSHRPSGMSNRFSGSKSGNTASLTISGLHIEDEGDYFCSSLTDRSHRIFGGGTKLTVLG"
  outputUnit: "µg/mL"
  experimentalResult: 0.05
- binder: "1503_H05 (PG16) (antibody, V domains shown) VH: QEKLVESGGGVVQPGGSLRLSCLASGFTFHKYGMHWVRQAPGKGLEWVALISDDGMRKYHSDSMWGRVTISRDNSKNTLYLQFSSLKVEDTAMFFCAREAGGPIWHDDVKYYDFNDGYYNYHYMDVWGKGTIVTVSS VL: QSALTQPASVSGSPGQTITISCNGTRSDVGGFDSVSWYQQSPGKAPKVMVFDVSHRPSGISNRFSGSKSGNTASLTISGLHIEDEGDYFCSSLTDRSHRIFGGGTKVTVLG"
  outputUnit: "µg/mL"
  experimentalResult: 0.02

Values were extracted from patent US20110044994A1.
